tested on: Escherichia coli TOP10; assay: shrunken log2 fold change of peptide-encoding DNA abundance (4.5 h post-induction vs induction); higher = less antimicrobial activity (less host growth inhibition); conditions: time post-induction: 4.5 h; library: site-saturation at positions 5, 18, 19, 20;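 note: peptides expressed intracellularly from a pBAD plasmid library in pooled LB shake-flask culture, induced with 0.3% L-arabinose, DNA abundance read by NGS, three biological replicates, DESeq2 with apeglm shrinkage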
Records here are stratified by shrunken log2 fold change; strata: lo (below -0.2), med (-0.2 to below -0.01), hi (-0.01 or more)

Look over these answered cases.
>  <Monomer Sequence>
RRIRDRPPRLPRPRPRPNNRPRP

>  <Group>
med

$$$$
>  <Monomer Sequence>
RRIRHRPPRLPRPRPRPHSKPRP

>  <Group>
lo

$$$$
>  <Monomer Sequence>
RRIRWRPPRLPRPRPRPLYHPRP

>  <Group>
lo

$$$$
>  <Monomer Sequence>
RRIRLRPPRLPRPRPRPWWHPRP

>  <Group>
hi

$$$$
>  <Monomer Sequence>
RRIRQRPPRLPRPRPRPFYWPRP

>  <Group>
lo

$$$$

QUERY: Which category does the recorded shrunken log2 fold change put "RRIRWRPPRLPRPRPRPIEGPRP" in?
RESULT: hi

QUERY: Please answer likewise for "RRIRLRPPRLPRPRPRPVENPRP"
RESULT: lo

QUERY: Similarly, "RRIRCRPPRLPRPRPRPILDPRP" ?
RESULT: med
